- test.target: T1, Mouse Fc-human GDF15 (Mu IgG1Fc_Fxa_Hu GDF15) (human)
- T1 construct: Whole entry is the fusion: mouse IgG1 Fc, FXa site and linker, mature human GDF15; described as dimeric; also called Murine dimeric IgG1 Fc-human GDF-15 with FXa cleavage site; control human GDF15
- T1 chain: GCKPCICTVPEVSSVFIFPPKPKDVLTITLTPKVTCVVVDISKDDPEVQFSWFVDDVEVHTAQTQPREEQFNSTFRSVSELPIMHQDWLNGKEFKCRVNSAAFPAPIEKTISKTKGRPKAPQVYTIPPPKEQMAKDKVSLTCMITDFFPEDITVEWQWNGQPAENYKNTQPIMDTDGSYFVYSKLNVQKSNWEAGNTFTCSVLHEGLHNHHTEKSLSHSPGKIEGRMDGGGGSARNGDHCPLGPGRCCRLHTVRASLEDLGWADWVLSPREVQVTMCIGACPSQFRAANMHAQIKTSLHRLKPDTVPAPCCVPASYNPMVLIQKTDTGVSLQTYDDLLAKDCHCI
- assay.details: SPR BIAcore T200, 37C; Fc-GDF15 captured, IgG as analyte; average of runs
result.type: kon
Answer format: value, then unit.

Entry under test: GDF15_0301 (antibody, mouse IgG1, kappa, V domains shown, Tested in bivalent format; also called GDF15_301; mAB2) VH: QVQLQQPGAELVKPGASVKMSCKASGYPFEGWYIHWVKQRPGQGLEWMGWNNPRTGLTNHAQKFQGKATLTVDTSSSTAYMQLSSLTSEDSAVYYCARGVGADAAFDIWGQGTTLTVSS VL: DIVLTQSPSSLSVSAGEKVTMSCRSSQSLLWKHGYNYLDWYQQKPGQPPKLLIYLDRNRAHGVPDRFTGSGSGTDFTLTISSVQAEDLAVYYCMQSFETPITFGGGTKLEIKR . Its kon was 4.72e+06 M⁻¹ s⁻¹
